# protocol.text: Plasma clearance in rat at 5 mg/kg, iv
# Format: ADME, organism-based
# Set-up: dose 5 mg/kg, route intravenous
observation.type: clearance (mL/min/kg)
Report as a plain number; the unit mL/min/kg is understood.

Q. Report clearance, nothing else, for this compound: Cc1ccc(N2CCN(C(=O)[C@H]3[C@@H](c4ccc(Cl)cc4)CCN3C(=O)N(C)C)CC2)c([C@@H](N)C(C)C)c1 (stereo in doubt; form 2)
A. 20

###

Entries with reported Ki on UniProt P32245
Report as a plain number; the unit nM is understood.

// worked examples, Ki included
CC(C)C[C@H](N)c1cc(C(F)(F)F)ccc1N1CCN(C(=O)C2NCCC2c2ccc(Cl)cc2)CC1 (some centres undefined)	98
CC(=O)N1CC[C@H](c2ccc(C)cc2)[C@@H]1C(=O)N1CCN(c2ccc(C)cc2[C@@H](N)C(C)C)CC1	97
CC(=O)N1CC[C@H](c2ccc(C(F)(F)F)cc2)[C@@H]1C(=O)N1CCN(c2ccc(C)cc2[C@@H](N)C(C)C)CC1	54

Pending compound:
Q. Report Ki, nothing else, for this compound: COC(=O)N1CC[C@H](c2ccc(Cl)cc2)[C@@H]1C(=O)N1CCN(c2ccc(C)cc2[C@@H](N)C(C)C)CC1 (stereo in doubt; form 1)
A. 17

###

# system.tested: Melanocortin receptor 4 (Homo sapiens)
# Sequence (P32245 whole entry): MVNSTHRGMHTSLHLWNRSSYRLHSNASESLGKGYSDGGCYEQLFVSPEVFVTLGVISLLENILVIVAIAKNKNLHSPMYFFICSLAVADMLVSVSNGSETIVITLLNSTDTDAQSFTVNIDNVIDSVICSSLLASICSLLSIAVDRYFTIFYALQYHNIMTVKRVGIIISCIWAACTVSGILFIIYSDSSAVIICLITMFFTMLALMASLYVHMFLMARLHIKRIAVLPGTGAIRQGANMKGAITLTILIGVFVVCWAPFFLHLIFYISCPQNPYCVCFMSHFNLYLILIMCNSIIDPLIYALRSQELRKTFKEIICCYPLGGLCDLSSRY
# protocol.text: Antagonist activity at MC4 receptor assessed as inhibition of alpha-MSH-stimulated cAMP production
observation.type: IC50 (nM)
Report as a plain number; the unit nM is understood.

// worked examples, IC50 included
CCOC(=O)N1CC[C@H](c2ccc(Cl)cc2)[C@@H]1C(=O)N1CCN(c2ccc(C)cc2[C@@H](N)C(C)C)CC1 (stereo in doubt; form 1)	640
Cc1ccc(N2CCN(C(=O)[C@H]3[C@@H](c4ccc(Cl)cc4)CCN3C(=O)N(C)C)CC2)c([C@@H](N)C(C)C)c1 (stereo in doubt; form 1)	190

Q. For Melanocortin receptor 4 (Homo sapiens), give the measured IC50 of the entry `Cc1ccc(N2CCN(C(=O)[C@@H]3NCC[C@@H]3c3ccc(Cl)cc3)CC2)c([C@@H](N)C(C)C)c1`
A. 310

Q. For Melanocortin receptor 4 (Homo sapiens), give the measured IC50 of the entry `CC(C)C[C@H](N)c1cc(Cl)ccc1N1CCN(C(=O)[C@@H]2NCC[C@@H]2c2ccc(Cl)cc2Cl)CC1`
A. 1500

Q. For Melanocortin receptor 4 (Homo sapiens), give the measured IC50 of the entry `CC(C)[C@H](N)c1cccc(F)c1N1CCN(C(=O)[C@@H]2NCC[C@@H]2c2ccc(Cl)cc2)CC1`
A. 960

Source: ChEMBL document CHEMBL1141529
